molecular target: Histone deacetylase 4 (Homo sapiens); test: Inhibition of human recombinant HDAC4 using fluorogenic HDAC substrate class 2A by fluorescence assay
Sequence (P56524 whole entry): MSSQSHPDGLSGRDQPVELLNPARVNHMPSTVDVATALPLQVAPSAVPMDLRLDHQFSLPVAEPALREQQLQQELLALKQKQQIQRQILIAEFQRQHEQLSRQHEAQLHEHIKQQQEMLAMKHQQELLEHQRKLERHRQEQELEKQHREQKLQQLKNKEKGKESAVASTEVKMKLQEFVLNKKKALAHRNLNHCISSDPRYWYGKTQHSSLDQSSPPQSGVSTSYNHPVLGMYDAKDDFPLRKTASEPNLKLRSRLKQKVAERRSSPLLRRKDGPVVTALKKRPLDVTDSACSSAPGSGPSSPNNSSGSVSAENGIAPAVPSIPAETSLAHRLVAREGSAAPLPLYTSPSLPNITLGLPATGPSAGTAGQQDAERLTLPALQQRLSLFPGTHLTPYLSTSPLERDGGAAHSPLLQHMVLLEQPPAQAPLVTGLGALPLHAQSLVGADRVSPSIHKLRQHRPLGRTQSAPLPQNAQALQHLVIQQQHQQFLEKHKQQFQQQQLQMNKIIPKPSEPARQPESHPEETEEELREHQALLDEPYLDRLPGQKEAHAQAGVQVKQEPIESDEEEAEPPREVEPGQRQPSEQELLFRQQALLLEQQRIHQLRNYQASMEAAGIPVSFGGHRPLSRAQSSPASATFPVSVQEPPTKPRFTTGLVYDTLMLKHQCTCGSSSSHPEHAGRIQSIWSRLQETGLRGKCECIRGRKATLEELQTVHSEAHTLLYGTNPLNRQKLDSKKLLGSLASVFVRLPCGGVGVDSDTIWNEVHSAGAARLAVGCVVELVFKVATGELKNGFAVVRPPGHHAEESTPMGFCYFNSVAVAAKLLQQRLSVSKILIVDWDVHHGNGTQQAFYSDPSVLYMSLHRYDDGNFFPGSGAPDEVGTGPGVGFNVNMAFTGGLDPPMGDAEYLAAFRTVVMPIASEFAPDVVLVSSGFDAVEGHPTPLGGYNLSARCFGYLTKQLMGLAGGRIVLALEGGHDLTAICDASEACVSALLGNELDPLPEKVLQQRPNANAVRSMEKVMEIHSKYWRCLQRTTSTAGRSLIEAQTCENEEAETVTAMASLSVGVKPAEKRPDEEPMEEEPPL
measured_metric: IC50 (µM)

(P) O=C(NO)c1ccc2c(c1)C(=O)c1ccccc1C2=O
(Q) O=C(/C=C/c1ccc2c(c1)C(=O)c1ccccc1C2=O)NO
Qu. Please let me know which one, P or Q , has a lower measured IC50 value. # answer = label of selected item
Ans. P
(P: 5.61 µM, Q: 16.2 µM)
